These data points were gathered from PubChem BioAssay (NCI).

# System: HCC-2998 colon
# EXPERIMENT: NCI-60 one-dose screen, 48 h
# SETTINGS: 10 µM unless noted
The panel holds about 83,000 compounds, 20% with a hit somewhere; the sample as a whole holds those more often. The source made the active and inactive calls. Rule for the calls: active = growth percent below 10; inactive = the rest.
Pick one: active, inactive

Take a look at these entries with their results.
| COMPOUND | LABEL VALUE |
| --- | --- |
| N#Cc1ccc(Oc2ccc3ccc(=O)oc3c2)cc1 | inactive |
| C=C(C)[C@@H]1CC[C@]2(C(=O)n3ccnc3)CC[C@]3(C)[C@H](CC[C@@H]4[C@@]5(C)CCCNC(C)(C)[C@@H]5CC[C@]43C)[C@@H]12 | active |
| O=C(O)C(C(=O)O)c1cccc2ccccc12 | inactive |

Q) Which outcome did this test record for the compound `C[C@@H]1C(=O)[C@@H]2C[C@@H](O)[C@@H](O)C[C@]2(C)[C@H]2CC[C@@]3(C)C(=C12)CC[C@@H]3[C@@](C)(O)[C@H](O)CCC(C)(C)O` ?
A) inactive

Q) Which outcome did this test record for the compound `COc1cc2c(cc1OCCCOc1cc3c(cc1OC)C(=O)N1CC(F)(F)C[C@H]1C=N3)N=C[C@@H]1CC(F)(F)CN1C2=O` ?
A) active

Q) Which outcome did this test record for the compound CCOc1ccc(C2N(c3cc(OC)c(OC)c(OC)c3)C(=O)C2(F)F)cc1 (centres undefined) ?
A) inactive

Q) Which outcome did this test record for the compound `NS(=O)(=O)c1ccc(-n2nc(-c3ccccc3)ccc2=O)cc1` ?
A) inactive

Q) Which outcome did this test record for the compound `Nc1c(C(=O)Nc2ccccn2)sc2nc3c(cc12)CCCC3` ?
A) inactive

Q) Which outcome did this test record for the compound `O=C(Nc1nc(-c2ccccc2Cl)cs1)c1cc(-c2ccc(Br)cc2)nc2ccccc12` ?
A) inactive

Q) Which outcome did this test record for the compound `COC(=O)/C=C1\SC(=Nc2cccc(OC)c2)N(CCc2c[nH]c3ccccc23)C1=O` ?
A) inactive

Q) Which outcome did this test record for the compound `COc1ccc(/C=C/C(=O)C(CC2CCC2)C(=O)/C=C/c2ccc(OC)c(OC)c2)cc1OC` ?
A) active
